The origin of these recorded values is ChEMBL document CHEMBL1201862.

Tested on: MDA-N
Test: NCI tumour cell line growth inhibition, 48 h
Calls of active or inactive are those of the source. No stated cut-off is given here; in the data, active = GI50 up to about 1.1 µM and inactive = higher.
Consider the following molecules and their measured GI50 readings.

As a guide, the following entries are already answered.
{"Molecule": "Fc1ccc(F)c(/C=N/C23CC4CC(CC(C4)C2)C3)c1", "Test system": "MDA-N", "GI50": "> 10 µM (inactive)"}
{"Molecule": "CCOC(=O)/C(=C\\c1ccc(N(C)C)cc1)S(=O)(=O)C(F)(F)C(F)(F)C(F)(F)C(F)(F)F", "Test system": "MDA-N", "GI50": "> 100 µM (inactive)"}
{"Molecule": "N#C/C(N)=C(C#N)/N=C/N", "Test system": "MDA-N", "GI50": "> 100 µM (inactive)"}
{"Molecule": "O[C@@H]1C[C@H]2N3CC[C@@]2(c2cc4c(cc2C3)OCO4)[C@H]2O[C@@H]12", "Test system": "MDA-N", "GI50": "> 100 µM (inactive)"}
{"Molecule": "Cc1nc2c(sc3nc4c(cc32)CCC4)c(=O)o1", "Test system": "MDA-N", "GI50": "38.7 µM (inactive)"}
{"Molecule": "COc1ccc(S(=O)(=O)NC(CCC(=O)NN)C(=O)NN)cc1 (stereo not given)", "Test system": "MDA-N", "GI50": "> 100 µM (inactive)"}
{"Molecule": "Cc1cc2oc(=N)c(C#N)c(C)c2cc1C", "Test system": "MDA-N", "GI50": "96.8 µM (inactive)"}
{"Molecule": "CCOC(=O)CC(C)C(C#N)(OP1(=O)OC(c2ccccc2)C(C)N1C)c1ccccc1 (stereo not given)", "Test system": "MDA-N", "GI50": "> 100 µM (inactive)"}
{"Molecule": "Fc1ccc2nc3n(c2c1)C(c1c(F)cccc1F)SC3 (stereo not given)", "Test system": "MDA-N", "GI50": "26.7 µM (inactive)"}

Next molecule, GI50 to be filled in.
Query GI50 on MDA-N for `C[C@H](CCC1=NCCN1)[C@H]1CC[C@H]2[C@@H]3[C@H](O)C[C@@H]4C[C@H](O)CC[C@]4(C)[C@H]3CC[C@]12C` 17.3 µM (inactive)
